Observed pIC50 for human DGAT1 (Homo sapiens, UniProt O75907), reported per entry below.
# reply with the number alone; pIC50 is -log10 of concentration in mol/L

# compound, assay_readout, assay_result
data = [
    ("O=C(NCc1cccc(N2CCCC2)c1)c1ccc(N2CCN(C(=O)Cc3c(Cl)cc(CN4CCCC4)cc3Cl)CC2)cc1 [Compound 267]", "pIC50", 6.97),
    ("O=C(CCOc1ccccc1)Nc1ccc(N2CCN(C(=O)Nc3c(Cl)cccc3Cl)CC2)cc1 [Compound 3]", "pIC50", 8.12),
    ("CC1(C)CCN(CC(=O)Nc2ccc(C3CCN(C(=O)Nc4c(Cl)cccc4Cl)CC3)cc2)CC1 [Compound 108]", "pIC50", 6.60),
]

Request: Find the measured pIC50: item CC(C)C(=O)N(C)CC(=O)Nc1ccc(N2CCN(C(=O)Nc3c(Cl)cccc3Cl)CC2)cc1 [Compound 166] , target or system human DGAT1 (Homo sapiens, UniProt O75907).
Response: 7.20

Request: Give human DGAT1 (Homo sapiens, UniProt O75907) pIC50 for CCC(C)C(NC(=O)OC(C)(C)C)C(=O)Nc1ccc(C2CCN(C(=O)Nc3c(Cl)cccc3Cl)CC2)cc1 (stereo not drawn) [Compound 213]
Response: 6.97

Request: Tell me reported pIC50 for O=C(CCCc1ccccc1)Nc1ccc(N2CCN(C(=S)Nc3c(Cl)cccc3Cl)CC2)cc1 [Compound 189] , tested with human DGAT1 (Homo sapiens, UniProt O75907).
Sequence (O75907 whole entry): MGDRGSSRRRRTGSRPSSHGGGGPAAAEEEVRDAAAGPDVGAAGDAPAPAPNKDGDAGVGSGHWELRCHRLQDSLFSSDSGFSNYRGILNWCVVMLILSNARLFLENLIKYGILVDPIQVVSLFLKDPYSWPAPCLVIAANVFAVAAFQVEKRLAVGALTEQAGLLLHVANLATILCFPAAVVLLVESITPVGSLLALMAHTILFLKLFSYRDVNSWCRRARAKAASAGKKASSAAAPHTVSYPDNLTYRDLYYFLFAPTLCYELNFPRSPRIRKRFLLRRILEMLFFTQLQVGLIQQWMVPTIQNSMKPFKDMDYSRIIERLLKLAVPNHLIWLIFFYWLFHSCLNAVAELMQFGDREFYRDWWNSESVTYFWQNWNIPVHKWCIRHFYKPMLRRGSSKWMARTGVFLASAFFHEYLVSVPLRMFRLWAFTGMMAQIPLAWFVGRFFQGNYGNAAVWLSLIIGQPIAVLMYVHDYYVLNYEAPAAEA
Response: 7.92

Request: Hi! What's the reported pIC50 for Cc1cc(C)cc(N2CCN(CC(=O)Nc3ccc(N4CCN(C(=O)Nc5c(Cl)cccc5Cl)CC4)cc3)CC2)c1 [Compound 41] on human DGAT1 (Homo sapiens, UniProt O75907)?
Response: 7.11

Request: Notebook entry, human DGAT1 (Homo sapiens, UniProt O75907) assay: pIC50 of O=C(CNCc1ccc(F)cc1)Nc1ccc(C2CCN(C(=O)Nc3c(Cl)cccc3Cl)CC2)cc1 [Compound 118] = ?
Response: 6.46

Request: Value wanted: pIC50 (human DGAT1 (Homo sapiens, UniProt O75907)) of entry O=C(CCCc1ccncc1)Nc1ccc(N2CCN(C(=O)Nc3c(Cl)cccc3Cl)CC2)cc1 [Compound 197]
Response: 6.91

Request: What value of pIC50 on human DGAT1 (Homo sapiens, UniProt O75907) does O=C(Nc1ccc(N2CCN(C(=O)Nc3c(Cl)cccc3Cl)CC2)cc1)C(O)CCc1ccccc1 (stereo not drawn) [Compound 48] have?
Response: 6.83

Request: Item Cc1ccccc1NC(=O)N1CCN(c2ccc(NC(=O)CCCc3ccccc3)cc2)CC1 [Compound 96] with human DGAT1 (Homo sapiens, UniProt O75907) - pIC50?
Response: 7.12

Request: For the record CN(C)C(=O)c1cc(Cl)c(NC(=O)N2CCN(c3ccc(NC(=O)CCCc4ccccc4)cc3)CC2)c(Cl)c1 [Compound 284] , what value of pIC50 is listed for human DGAT1 (Homo sapiens, UniProt O75907)?
Response: 8.09

Request: Notebook: pull reported pIC50 for human DGAT1 (Homo sapiens, UniProt O75907), entry CC(C)(C)OC(=O)NC(CO)C(=O)Nc1ccc(C2CCN(C(=O)Nc3c(Cl)cccc3Cl)CC2)cc1 (stereo not drawn) [Compound 204]
Response: 5.72

Request: Value wanted: pIC50 (human DGAT1 (Homo sapiens, UniProt O75907)) of entry O=C(CCCc1ccccc1)Nc1ccc(N2CCN(C(=O)Nc3c(Cl)cc(CN4CCOCC4)cc3Cl)CC2)cc1 [Compound 269]
Response: 8.69
